- Measured target: Voltage-gated potassium channel subunit beta-2 (Rattus norvegicus) (UniProt P62483)
- Sequence (P62483 whole entry, looked up): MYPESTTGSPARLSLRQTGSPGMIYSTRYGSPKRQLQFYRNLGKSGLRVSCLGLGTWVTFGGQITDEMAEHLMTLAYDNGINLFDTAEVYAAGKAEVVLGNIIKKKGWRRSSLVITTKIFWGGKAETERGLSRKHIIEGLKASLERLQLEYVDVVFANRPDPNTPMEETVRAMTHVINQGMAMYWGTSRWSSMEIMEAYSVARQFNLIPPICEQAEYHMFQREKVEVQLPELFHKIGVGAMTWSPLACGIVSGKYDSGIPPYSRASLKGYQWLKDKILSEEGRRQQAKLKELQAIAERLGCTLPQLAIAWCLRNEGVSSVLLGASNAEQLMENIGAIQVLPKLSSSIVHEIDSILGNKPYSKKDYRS
- Method description: KvBeta enzyme negative modulators, primary screen, biochemical, NADPH fluorescence (AID 622);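 further: slope of raw intensity against log time taken from 70 to 1610 s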
- Experimental parameters: recombinant KvBeta, 4-cyanobenzaldehyde reduction, at 10 µM, stronger effect = higher value
Attribute measured: fluorescence slope
Just the number, please.

# fluorescence slope (compound: CCOC(=O)N1CCN(C(=O)CSc2cc(C)nc3c(-c4ccccc4OC)c(C)nn23)CC1 ) is -0.54

# fluorescence slope (compound: COc1ccc2nc(SCC(=O)O)nc(C)c2c1 ) is -0.447

# fluorescence slope (compound: CCOC(=O)c1oc2cccc(OC(C)=O)c2c1C ) is -0.607

# fluorescence slope (compound: c1ccc2c(c1)[nH]c1c(N3CCSCC3)ncnc12 ) is -0.358

# fluorescence slope (compound: CCc1ccc(CCC(=O)Nc2ccc(C)c(C)c2)o1 ) is -0.4

# fluorescence slope (compound: C/C(N)=C(/C#N)C(=O)COC(=O)CCSc1ccccc1 ) is -0.464

# fluorescence slope (compound: Cc1ccc(S(=O)(=O)NC(C)C(=O)Nc2ccc(C(N)=O)cc2)cc1 (configuration not stated) ) is -0.521

# fluorescence slope (compound: Cc1cccc(NC(=O)COc2ccc(Br)cc2)n1 ) is -0.437

# fluorescence slope (compound: CN(C)CCCN(CCCNC(=O)/C=N/O)Cc1ccccc1 ) is -0.495

# fluorescence slope (compound: C=C(Cl)COC(=O)[C@H]1C2C=CC(C2)C1C(=O)O (some centres not stated) ) is -0.435

# fluorescence slope (compound: CC(C)C(=O)N1CCN(c2nc(-c3ccccc3)c3c(c2C#N)CC(C)(C)OC3)CC1 ) is -0.366

# fluorescence slope (compound: Cc1ccsc1C(C(=O)NC1CCCCC1)N(C(=O)Cc1cccs1)C1CC1 (configuration not stated) ) is -0.35

###

- Method description: inhibitors of TNFa-induced NFkB p65 translocation, primary screen, imaging, HUVEC, MLSMR starter and 10KST1 sets (AID 438);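 further: compound added about 3h40 before a 20 min TNFalpha stimulation; signal is the nuclear over cytoplasmic p65 intensity ratio per well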
- Experimental parameters: HUVEC TNFa-induced p65 nuclear translocation; at 2 µM, stronger effect = higher value, 0% TNFa-plus-vehicle, 100% no-TNFa wells
The source made the active and inactive calls.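 How the source made its calls: active means inhibition above 20% together with a positive visual image hit; inconclusive means visual image hit but inhibition not above 20%; inactive means no visual image hit.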
Attribute measured: inhibition

# inhibition (molecule: O=C1C(=O)N(Cc2cccnc2)C(c2ccccn2)/C1=C(/O)c1ccc(F)cc1 (stereo unspecified) ) is -1.1% (inactive)

# inhibition (molecule: O=S1(=O)N=C(Nc2nc3c(s2)CCCC3)c2ccccc21 ) is -4.2% (inactive)

# inhibition (molecule: CCOC(=O)C1=C(O)CCn2c1nc1ccccc12 ) is 2% (inactive)

# inhibition (molecule: CCc1nnc(SCC(=O)NC2CCCCC2)nc1CC ) is -14.3% (inactive)

# inhibition (molecule: Cc1cc(=O)oc2cc(OCC(=O)NCc3cccnc3)ccc12 ) is 9% (inactive)

# inhibition (molecule: COc1ccc(-c2ccc(-c3nnn(CC(C)=O)n3)cc2)cc1 ) is -6.2% (inactive)

###

Exercise: state measured nuclei count for each of the molecules provided.
- Method description: inhibitors of mutant huntingtin aggregation, primary screen, imaging, exon1htt(103Q)mCFP cells, high-content imaging (AID 483);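 further: compound exposure lasted 3 days before fixation; percent of the per-plate median nuclei count of sample wells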
- Experimental parameters: exon1htt(103Q)mCFP cell line, aggregate imaging, at 2 µM; measured here: cell count, toxicity
Give just the number in %; leave the unit off.

# nuclei count (molecule: CCN1CCN(CCCNC(=O)C2c3ccccc3C(=O)N(C)C2c2ccc(OC)cc2)CC1 (stereo not given) ) is 82.8

# nuclei count (molecule: Cc1nnc(SCc2nc3ccccc3s2)n1-c1ccccc1 ) is 83.9

# nuclei count (molecule: Cc1cc(C)c2c(=O)n(CC(=O)NCCCN3CCN(c4ccccc4F)CC3)sc2n1 ) is 105

# nuclei count (molecule: CCc1nnc(NC(=O)C2Cc3ccccc3CN2S(=O)(=O)c2cccs2)s1 (stereo not given) ) is 116

# nuclei count (molecule: O=S(=O)(Nc1nc2ccccc2nc1NCc1ccco1)c1cccs1 ) is 105

# nuclei count (molecule: COc1ccc(CCn2c(C)cc(C(=O)CSc3nnnn3C)c2C)cc1 ) is 131

# nuclei count (molecule: CC1(C)NC(=O)N(CC(O)CN2CCCC2)C1=O (stereo not given) ) is 85.6

# nuclei count (molecule: Cn1nnnc1SCC(=O)Nc1ccccc1-c1ccccc1 ) is 87.9

# nuclei count (molecule: COC(=O)CC1SCCNC1=O (stereo not given) ) is 97.9

# nuclei count (molecule: O=C1CCCN1CCCNc1ncnc2c1[nH]c1ccc(Cl)cc12 ) is 101

###

Exercise: state measured nuclei count for each of the compounds provided.
- Method description: inhibitors of E-selectin induction by TNFa, primary screen, imaging, HUVEC, immunofluorescence, MLSMR starter and 10KST1 sets (AID 487);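 further: 100% = median nuclei count of all wells on the same plate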
- Experimental parameters: HUVEC TNFalpha-induced E-selectin immunofluorescence imaging, at 2 µM; measured here: cell number, toxicity
Where a SMILES comes first, the peptide text is derived from it. The star is where a group is joined. Boc = CC(C)(C)OC(=O)*
Give just the number in %; leave the unit off.

# nuclei count (compound: CC(C)(C)OC(=O)N1CCCC1C(=O)NC(Cc1ccccc1)C(=O)O (stereo not drawn) (Boc-Pro-Phe-OH; configuration not given here) ) is 101

# nuclei count (compound: CCc1cc(=O)oc2cc(C)c(CN3CCCC3)c(O)c12 ) is 158

# nuclei count (compound: CCCNC1=C(C)C(=O)CC1 ) is 120

# nuclei count (compound: Cc1nc(NC(=O)C23CCC(C)(C(=O)O2)C3(C)C)sc1C (centres undefined) ) is 106

###

- Method description: inhibitors of Sendai virus-induced IRF3 signaling, primary screen, TLR/RLR signaling modifier project, cell-based, Sendai virus stimulus, luciferase, 10K MLSCN set (AID 602276);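 further: firefly luciferase from ISG56 promoter only with Renilla not read in this screen; 0% = Sendai virus plus DMSO and 100% = medium plus DMSO without virus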
- Experimental parameters: HEK293 RL24 IRF3 luciferase reporter, at 10 µM, stronger effect = higher value
Active and inactive are the calls of the source.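 Rule for the calls: active = inhibition at or above 50% at 10 µM; inactive = inhibition below 50%.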
Attribute measured: inhibition

# inhibition (compound: CCOC(=O)C1C2C=CC3(CN(c4cccc(Cl)c4)C(=O)C13)O2 (stereo not given) ) is 13.2% (inactive)

# inhibition (compound: COc1ccc(C(C)N2CC34C=CC(O3)C(C(=O)OCC(C)C)C4C2=O)cc1 (stereo not given) ) is 13.5% (inactive)

# inhibition (compound: CCCc1cc(C(=O)Nc2ccccc2SC)no1 ) is -22% (inactive)

# inhibition (compound: CC1=C(C(=O)OCC(C)C)C(c2cc3c(cc2Br)OCO3)NC(=O)N1C (stereo not given) ) is 11.4% (inactive)

# inhibition (compound: Cc1cc(C(=O)COC(=O)C2COc3ccccc3O2)c(C)n1CC1CCCO1 (stereo not given) ) is 6.89% (inactive)

# inhibition (compound: CC1CCCCN1CCNS(=O)(=O)c1ccc2c(c1)oc(=O)n2C (stereo not given) ) is 15.8% (inactive)

# inhibition (compound: O=C(COC(=O)c1cc(-c2ccco2)nc2ccccc12)NCc1ccc2c(c1)OCO2 ) is 2.9% (inactive)

# inhibition (compound: Cc1ccc2c(C)nc(NC3=NCN(C(C)C)CN3)nc2c1 ) is 11.3% (inactive)

# inhibition (compound: CN(C)c1cccc2c(S(=O)(=O)Nc3ccccn3)cccc12 ) is 11.3% (inactive)

# inhibition (compound: CC1CCCCC1NC(=O)c1nn(C)c(=O)c2ccccc12 (stereo not given) ) is -1.74% (inactive)

###

Exercise: state measured NADPH fluorescence slope for each of the molecules provided.
- Measured target: Voltage-gated potassium channel subunit beta-2 (Rattus norvegicus) (UniProt P62483)
- Method description: KvBeta positive modulators, primary screen, biochemical, NADPH fluorescence (AID 623);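 further: fluorescence intensity change per second fitted from 20 to 320 s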
- Experimental parameters: Recombinant KvBeta, NADPH fluorescence decrease slope, 10 min; at 10 µM; stronger effect = lower value
Just the number, please.

# NADPH fluorescence slope (molecule: N#C/C(=C\c1c(N2CCC(C(N)=O)CC2)nc2ccccn2c1=O)S(=O)(=O)c1ccccc1 ) is -2.9e-05

# NADPH fluorescence slope (molecule: COc1cc(OC)c(C2N(C)c3ccccc3N2C)cc1OC ) is -1.1e-05

# NADPH fluorescence slope (molecule: CC12CN3CC(C)(CN(C1)C3c1ccc(Cl)cc1Cl)C2O (stereo not given) ) is -6.5e-05

# NADPH fluorescence slope (molecule: COc1cc2[nH]c(=O)c(C(=O)NCCCN3CCCCC3)c(O)c2cc1OC ) is -5.3e-05

# NADPH fluorescence slope (molecule: CCCCOCP(=O)(CCCC)COCCCC ) is -8.4e-05

###

- Method description: inhibitors of E-selectin induction by TNFa, primary screen, imaging, HUVEC, immunofluorescence, MLSMR starter and 10KST1 sets (AID 487);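 further: 100% = median nuclei count of all wells on the same plate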
- Experimental parameters: HUVEC TNFalpha-induced E-selectin immunofluorescence imaging, at 2 µM; measured here: cell number, toxicity
Exercise: state measured nuclei count for each of the molecules provided.
Give just the number in %; leave the unit off.

# nuclei count (molecule: C=CCn1c(SCC(=O)c2ccc(NS(=O)(=O)c3ccccc3)cc2)nnc1-c1cccs1 ) is 156

# nuclei count (molecule: Cc1ccc2cc3cc(C(=O)NCCN4CCOCC4)oc3nc2c1 ) is 111

# nuclei count (molecule: CC(C)CCn1c(=O)c2ccccc2n2c(CN(C)Cc3ccccc3)nnc12 ) is 170

# nuclei count (molecule: Cc1nn(C)cc1/C=N/n1nnnc1N ) is 155

# nuclei count (molecule: CCN1C(=O)c2ccccc2S(=O)(=O)c2ccc(C(=O)NCc3cccnc3)cc21 ) is 129

# nuclei count (molecule: CS(=O)(=O)N(CC(=O)NCCSCc1cccc(Cl)c1)c1ccc2c(c1)OCO2 ) is 71.4

# nuclei count (molecule: CC(C)c1nc(NCCN2CCOCC2)c(C#N)c2c1COC(C)(C)C2 ) is 186
